Record form. Attribute: Intrinsic activity. Fill in for each entry.
# tested system: Neuropeptide Y receptor type 4 (Homo sapiens)
# Sequence (P50391 whole entry): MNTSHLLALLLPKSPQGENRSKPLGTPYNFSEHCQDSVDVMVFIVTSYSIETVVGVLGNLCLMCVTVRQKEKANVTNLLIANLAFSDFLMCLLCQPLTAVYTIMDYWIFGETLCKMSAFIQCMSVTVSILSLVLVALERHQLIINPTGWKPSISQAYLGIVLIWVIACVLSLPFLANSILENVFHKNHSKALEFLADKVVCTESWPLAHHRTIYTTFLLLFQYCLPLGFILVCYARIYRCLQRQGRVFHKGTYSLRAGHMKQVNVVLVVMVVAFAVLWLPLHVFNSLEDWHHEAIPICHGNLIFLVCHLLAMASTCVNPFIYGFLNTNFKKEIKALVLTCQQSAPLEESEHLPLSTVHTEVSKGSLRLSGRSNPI
# test name: Intrinsic activity at human neuropeptide Y Y4 receptor expressed in HEK293T-ARRB1 cells assessed as stimulation of beta-arrestin 1 recruitment by multimode plate reader relative to hPP
# Assay type: functional, cell-based
Residues, ends and D or L forms follow the SMILES beside them.

Known results for molecules:
- molecule: "CC(C)C[C@H](NC(=O)[C@H](CCCNC(=N)N)NC(=O)[C@@H]1CCC(=O)N[C@@H](CCCNC(=N)N)C(=O)NCC(=O)N[C@@H](Cc2ccc(O)cc2)C(=O)N1)C(=O)N[C@@H](CCCNC(=N)N)C(=O)N[C@@H](Cc1ccc(O)cc1)C(N)=O (HELM PEPTIDE1{R.G.Y.E.R.L.R.Y.[am]}$PEPTIDE1,PEPTIDE1,1:R1-4:R3$$$V2.0)"
  Intrinsic activity: "64%"
- molecule: "CC(C)C[C@H](NC(=O)[C@H](CCCNC(=N)NC(=O)NCCCN)NC(=O)[C@H](Cc1ccc(O)cc1)NC(=O)[C@H](CCCNC(=N)N)NC(=O)CCC(=O)O)C(=O)N[C@@H](CCCNC(=N)N)C(=O)N[C@@H](Cc1ccc(O)cc1)C(N)=O"
  Intrinsic activity: "61%"

Next molecule, please.
[ask] What value of measured Intrinsic activity is listed for CC(C)C[C@H](NC(=O)[C@@H]1CCCNC(=N)NC(=O)NCCCCNC(=O)CCC(=O)N[C@@H](CCCNC(=N)N)C(=O)N[C@@H](Cc2c[nH]c3ccccc23)C(=O)N1)C(=O)N[C@@H](CCCNC(=N)N)C(=O)N[C@@H](Cc1ccc(O)cc1)C(N)=O ?
[reply] 98%
